B1: TPR t1 (parent)
chain: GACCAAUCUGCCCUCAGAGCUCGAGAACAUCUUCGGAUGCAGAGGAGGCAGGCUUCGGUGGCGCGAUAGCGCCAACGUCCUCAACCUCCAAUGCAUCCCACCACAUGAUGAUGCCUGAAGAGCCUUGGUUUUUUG

# Variants of: B1
# experimentDescription: polymerase ribozyme fitness, log enrichment relative to wild type (log ratio); higher = more active; in vitro selection for triplet polymerase activity
Assignment: determine reported polymerase ribozyme fitness (log ratio) for the given variants.
Lab note: record the figure alone, no unit after it.

[Q] What does the record list as polymerase ribozyme fitness (log ratio) for G48C C72U A90G U132A ?
[A] -0.935

[Q] Quick one: G36U G47C G117U
[A] -6.43

[Q] Quick one: U9A C13G G61U
[A] 0.255

[Q] Quick one: C34U C114U U131A
[A] -4.04

[Q] Quick one: C4U G69U
[A] -0.399

[Q] Quick one: G60U C86U A103U
[A] -6.46

[Q] Quick one: G10A G61U G122A
[A] 0.738
